The measured values listed here are drawn from patent US11124554B2.

biological target: α7^Q79S-5HT3 (Homo sapiens, UniProt P36544, M226I/Q79S/T225I); construct: expressed in transfected cells; host or cells: HEK cells; assay: Agonist potency (EC50), HEK cells expressing chimeric channel; type: cell-based, human α7 nAChR LBD, murine 5HT3 IPD; conditions: read-out: Mean EC50, α7^Q79S-5HT3
Sequence (P36544 with tags, fused parts or gaps Q79S/T225I/M226I): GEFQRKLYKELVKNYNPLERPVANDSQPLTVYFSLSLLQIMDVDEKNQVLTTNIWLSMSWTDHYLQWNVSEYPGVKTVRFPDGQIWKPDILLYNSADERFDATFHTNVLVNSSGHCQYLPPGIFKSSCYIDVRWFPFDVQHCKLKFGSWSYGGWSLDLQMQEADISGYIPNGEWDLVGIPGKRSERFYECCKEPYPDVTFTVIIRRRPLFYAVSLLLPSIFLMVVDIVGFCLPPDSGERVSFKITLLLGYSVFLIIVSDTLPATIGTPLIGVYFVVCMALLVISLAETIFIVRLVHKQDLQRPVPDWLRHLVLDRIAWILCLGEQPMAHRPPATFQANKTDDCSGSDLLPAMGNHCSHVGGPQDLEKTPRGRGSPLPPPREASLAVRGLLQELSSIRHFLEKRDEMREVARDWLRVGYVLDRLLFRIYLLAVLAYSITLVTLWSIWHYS
Please go through the items and note down their EC50.
The reply should be a number in nM, with the unit left off.

Exam item: I am curious: what EC50 value has been reported for O=C(NC1CN2CCC1CC2)c1ccc(Cl)cc1 (centres unmarked) [PNU-282987] ?
Marked response: 23

Exam item: I am curious: what EC50 value has been reported for O=c1cccc2n1C[C@@H]1CNC[C@H]2C1 [Cytisine] ?
Marked response: 4400

====

target: α7^G175K,Y210F-GlyR (Homo sapiens, UniProt P36544, G175K/Y210F); experiment: Agonist potency at chimeric channel
Sequence (P36544 with tags, fused parts or gaps G175K/Y210F): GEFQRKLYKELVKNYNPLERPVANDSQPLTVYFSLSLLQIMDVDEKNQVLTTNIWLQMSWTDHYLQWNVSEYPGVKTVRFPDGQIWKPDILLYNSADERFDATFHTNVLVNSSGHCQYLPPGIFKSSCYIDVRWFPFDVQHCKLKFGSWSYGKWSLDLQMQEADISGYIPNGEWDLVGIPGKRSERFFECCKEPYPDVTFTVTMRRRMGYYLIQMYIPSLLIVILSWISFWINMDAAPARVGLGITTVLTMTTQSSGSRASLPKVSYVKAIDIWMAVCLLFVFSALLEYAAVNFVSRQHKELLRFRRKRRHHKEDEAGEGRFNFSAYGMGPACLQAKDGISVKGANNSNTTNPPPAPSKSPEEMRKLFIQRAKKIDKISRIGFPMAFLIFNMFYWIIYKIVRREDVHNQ
Please go through the items and note down their pEC50.
pEC50 here: minus log base 10 of the concentration, concentration in moles per litre.

Exam item: I am curious: what pEC50 value has been reported for Clc1ccc(C2CC3CCC2N3)cn1 (stereo not drawn) [Epibatidine] ?
Marked response: 6.19

Exam item: I am curious: what pEC50 value has been reported for O=C(NC1CN2CCC1CC2)c1ccc(Cl)cc1 (stereo not drawn) [PNU-282987] ?
Marked response: 6.15

====

Please go through the items and note down their EC50.
molecular target: α7-GlyR (Homo sapiens, UniProt P36544); construct: expressed in transfected cells; host or cells: HEK cells; assay: Agonist potency (EC50), HEK cells expressing chimeric channel; assay type: cell-based
Sequence (P36544 with tags, fused parts or gaps): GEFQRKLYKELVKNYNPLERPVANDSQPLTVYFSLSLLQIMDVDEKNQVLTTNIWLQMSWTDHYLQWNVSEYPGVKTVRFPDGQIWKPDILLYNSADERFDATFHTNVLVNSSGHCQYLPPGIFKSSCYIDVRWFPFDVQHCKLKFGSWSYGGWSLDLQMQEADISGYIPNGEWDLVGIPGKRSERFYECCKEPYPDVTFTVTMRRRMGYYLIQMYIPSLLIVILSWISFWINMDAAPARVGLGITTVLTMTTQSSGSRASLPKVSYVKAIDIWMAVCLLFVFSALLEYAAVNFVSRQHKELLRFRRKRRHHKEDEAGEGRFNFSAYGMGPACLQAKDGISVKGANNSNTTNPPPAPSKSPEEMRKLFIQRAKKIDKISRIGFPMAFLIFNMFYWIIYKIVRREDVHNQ
The reply should be a number in nM, with the unit left off.

Exam item: I am curious: what EC50 value has been reported for S=C(Nc1ccc(Cl)cc1)NC1CN2CCC1CC2 (stereo not drawn) ?
Marked response: 1000

Exam item: I am curious: what EC50 value has been reported for O=C(NC1CN2CCC1CC2)c1ccc(Cl)cc1 (stereo not drawn) ?
Marked response: 130

Exam item: I am curious: what EC50 value has been reported for O=c1cccc2n1C[C@@H]1CNC[C@H]2C1 ?
Marked response: 6400

====

molecular target: α7^Q79G-GlyR (Homo sapiens, UniProt P36544, Q79G); construct: expressed in transfected cells; host or cells: HEK cells; assay: Agonist potency (EC50), HEK cells expressing chimeric channel; format: cell-based; details: HEK cells; Table 2; read-out: Mean EC50 and SEM in parentheses, α7^Q79G-GlyR
Sequence (P36544 with tags, fused parts or gaps Q79G): as the sequence (P36544 with tags, fused parts or gaps) above, with Q57G counted along it
Readout Kind: EC50 (nM)
The reply should be a number in nM, with the unit left off.

Exam item: Give recorded EC50 with α7^Q79G-GlyR (Homo sapiens, UniProt P36544, Q79G) for the following compound: Cn1cc(C(=O)C(=O)NC2CN3CCC2CC3)c2ccccc21 (stereo not shown) [RS56812]
Marked response: 2000

====

target: α7^Y115F,G175K-GlyR (Homo sapiens, UniProt P36544, G175K/Y115F); construct: expressed in transfected cells; assay: Agonist potency at chimeric channel; type: cell-based; settings: Table 6; read-out: Potency, a7GlyR Y115F G175K
Sequence (P36544 with tags, fused parts or gaps Y115F/G175K): as the sequence (P36544 with tags, fused parts or gaps) above, with Y93F, G153K counted along it
Please go through the items and note down their pEC50.
pEC50 here: minus log base 10 of the concentration, concentration in moles per litre.

Exam item: I am curious: what pEC50 value has been reported for COc1ccc2[nH]cc(C(=O)O[C@H]3C[C@H]4CC[C@@H](C3)N4C)c2c1 [Compound 736] ?
Marked response: 6.24

Exam item: I am curious: what pEC50 value has been reported for CN1C2CCC1CC(NC(=S)c1cn(C)c3ccccc13)C2 (stereo not shown) [Compound 622] ?
Marked response: 5.60

====

molecular target: α7-5HT3 (Homo sapiens, UniProt P36544, M226I/T225I); construct: expressed in transfected cells; host or cells: HEK cells; assay: Agonist potency (EC50), HEK cells expressing chimeric channel; format: cell-based, human α7 nAChR LBD, murine 5HT3 IPD; conditions: HEK cells; Table 3; read-out: α7-5HT3 EC50
Sequence (P36544 with tags, fused parts or gaps T225I/M226I): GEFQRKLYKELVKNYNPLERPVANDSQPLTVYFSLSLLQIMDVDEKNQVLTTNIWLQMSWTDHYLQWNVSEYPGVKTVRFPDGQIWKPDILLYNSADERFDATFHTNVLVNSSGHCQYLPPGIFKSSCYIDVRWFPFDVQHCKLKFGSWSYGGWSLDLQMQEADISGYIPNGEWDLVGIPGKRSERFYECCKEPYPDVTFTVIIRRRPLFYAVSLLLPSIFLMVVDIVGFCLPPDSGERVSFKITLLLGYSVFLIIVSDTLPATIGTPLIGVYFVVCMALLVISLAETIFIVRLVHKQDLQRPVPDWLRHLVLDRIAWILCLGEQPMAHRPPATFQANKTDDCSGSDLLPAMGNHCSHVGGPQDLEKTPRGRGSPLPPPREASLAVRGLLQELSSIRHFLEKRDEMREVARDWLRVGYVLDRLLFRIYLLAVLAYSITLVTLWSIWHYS
Please go through the items and note down their pEC50.
pEC50 here: minus log base 10 of the concentration, concentration in moles per litre.

Exam item: Give recorded pEC50 with α7-5HT3 (Homo sapiens, UniProt P36544, M226I/T225I) for the following molecule: O=C(NC1CN2CCC1CC2)c1c[nH]c2ccccc12 (centres unmarked)
Marked response: 7.52

Exam item: Give recorded pEC50 with α7-5HT3 (Homo sapiens, UniProt P36544, M226I/T225I) for the following molecule: O=C(NC1C2CCN(CC2)C1Cc1cccnc1)c1ccc(C(F)(F)F)cc1 (mixture of isomers)
Marked response: 6.08

Exam item: Give recorded pEC50 with α7-5HT3 (Homo sapiens, UniProt P36544, M226I/T225I) for the following molecule: CN1C2CCC1CC(NC(=S)c1c[nH]c3ccccc13)C2 (centres unmarked)
Marked response: 5.42

Exam item: Give recorded pEC50 with α7-5HT3 (Homo sapiens, UniProt P36544, M226I/T225I) for the following molecule: O=C(Nc1ccccc1)NC1CN2CCC1CC2 (centres unmarked)
Marked response: 6.19

====

Please go through the items and note down their EC50.
molecular target: α7^Q79G-GlyR^A298G (Homo sapiens, UniProt P36544, A298G/Q79G); construct: expressed in transfected cells; host or cells: HEK cells; assay: Agonist potency (EC50), HEK cells expressing chimeric channel; format: cell-based; conditions: HEK cells; Table 3; read-out: α7^Q79G-GlyR^A298G EC50
Sequence (P36544 with tags, fused parts or gaps Q79G): as the sequence (P36544 with tags, fused parts or gaps G175K/Y210F) above, with Q57G, K153G, F188Y, A276G counted along it
The reply should be a number in nM, with the unit left off.

Exam item: I am curious: what EC50 value has been reported for CN1C2CCC1CC(NC(=S)c1c[nH]c3ccccc13)C2 (centres unmarked) [Compound 0542] ?
Marked response: 72

Exam item: I am curious: what EC50 value has been reported for S=C(Nc1ccc(Cl)cc1)NC1CN2CCC1CC2 (centres unmarked) [Compound 0354] ?
Marked response: 30

Exam item: I am curious: what EC50 value has been reported for O=C(NC1CN2CCC1CC2)c1ccc(C(F)(F)F)nc1 (centres unmarked) [Compound 0296] ?
Marked response: 450

Exam item: I am curious: what EC50 value has been reported for O=C(NC1CN2CCC1CC2)c1ccc(C(F)(F)F)cn1 (centres unmarked) [Compound 0295] ?
Marked response: 4600

Exam item: I am curious: what EC50 value has been reported for O=C(NC1C2CCN(CC2)C1Cc1cccnc1)c1ccc(C(F)(F)F)cc1 (mixture of isomers) [Compound 0436] ?
Marked response: 6

Exam item: I am curious: what EC50 value has been reported for O=C(Nc1ccccc1)NC1CN2CCC1CC2 (centres unmarked) [Compound 0353] ?
Marked response: 10

Exam item: I am curious: what EC50 value has been reported for O=C(NC1CN2CCC1CC2)c1c[nH]c2ccccc12 (centres unmarked) [Compound 0676] ?
Marked response: 2

Exam item: I am curious: what EC50 value has been reported for COc1ccc(OC)c(C(=O)NC2C3CCN(CC3)C2Cc2cccnc2)c1 (mixture of isomers) [Compound 0434] ?
Marked response: 190

====

molecular target: α7^Q79G-GlyR^A298G (Homo sapiens, UniProt P36544, A298G/Q79G); construct: expressed in transfected cells; host or cells: HEK cells; test: Agonist potency (EC50), HEK cells expressing chimeric channel; assay type: cell-based
Please go through the items and note down their EC50.
The reply should be a number in µM, with the unit left off.

Exam item: I am curious: what EC50 value has been reported for O=C(NC1CN2CCC1CC2)c1ccc(Cl)cc1 (stereo not drawn) ?
Marked response: 0.007

Exam item: I am curious: what EC50 value has been reported for CN1[C@@H]2CCC[C@H]1C[C@@H](NC(=S)c1ccc(Cl)cc1)C2 ?
Marked response: 9.1

Exam item: I am curious: what EC50 value has been reported for Clc1ccc(C2CC3CCC2N3)cn1 (stereo not drawn) [Epibatidine] ?
Marked response: 0.032

====

target: α7^L131G,Y217F-GlyR (Homo sapiens, UniProt P36544, L131G/Y217F); test: Agonist potency at chimeric channel (Table 9)
Readout Kind: EC50 (nM)
The reply should be a number in nM, with the unit left off.

Exam item: I am curious: what EC50 value has been reported for O=c1cccc2n1C[C@@H]1CNC[C@H]2C1 ?
Marked response: 30000

Exam item: I am curious: what EC50 value has been reported for Clc1ccc(C2CC3CCC2N3)cn1 (stereo not drawn) [Epibatidine] ?
Marked response: 15

Exam item: I am curious: what EC50 value has been reported for O=C(NC1CN2CCC1CC2)c1ccc(Cl)cc1 (stereo not drawn) ?
Marked response: 54

====

target: α7-5HT3 (Homo sapiens, UniProt P36544, M226I/T225I); construct: expressed in transfected cells; host or cells: HEK cells; test: Agonist potency (EC50), HEK cells expressing chimeric channel; type: cell-based, human α7 nAChR LBD, murine 5HT3 IPD; details: read-out: α7-5HT3 EC50; HEK cells; Table 3
Readout Kind: EC50
Please report the result as a number followed by the unit.

Exam item: I am curious: what EC50 value has been reported for S=C(Nc1ccc(Cl)cc1)NC1CN2CCC1CC2 (stereo not shown) ?
Marked response: 1400 nM
